# Tested on: brine shrimp A. salina larvae
# Run Description: Method F: immersion bioassay of brine shrimp larvae in brine
# Type: in vivo
# Particulars: brine shrimp larvae immersed in brine, 24 hour mortalities
# Lookup of reported log10(LC50) keyed by entry
Measurement Type: log10(LC50) (log10 of the value in µg/mL)

{"Compound": "CC1=C[C@H]([C@H]2O[C@@H]3OC(C)(C)O[C@@H]3[C@@H]2OCc2ccccc2)OC1=O", "Assay System": "brine shrimp A. salina larvae", "log10(LC50)": 1.81}
{"Compound": "CC1(C)O[C@H]2O[C@H]([C@H]3C=CC(=O)O3)[C@@H](OCc3ccccc3)[C@H]2O1", "Assay System": "brine shrimp A. salina larvae", "log10(LC50)": 2.16}
{"Compound": "CO[C@H]1O[C@H]([C@@H]2CO2)[C@@H]2O[C@H]12", "Assay System": "brine shrimp A. salina larvae", "log10(LC50)": 2.83}
{"Compound": "CC1(C)OC2OC(C3CC(C)([Se]c4ccccc4)C(=O)O3)C(OCc3ccccc3)C2O1 (stereo not shown)", "Assay System": "brine shrimp A. salina larvae", "log10(LC50)": 2.34}
{"Compound": "CC1(C)O[C@H]2O[C@H]([C@H]3C=CC(=O)O3)[C@H](OCc3ccccc3)[C@H]2O1", "Assay System": "brine shrimp A. salina larvae", "log10(LC50)": 2.55}
{"Compound": "CC(=O)OC[C@H]1OC(=O)C(Br)=C[C@@H]1OC(C)=O", "Assay System": "brine shrimp A. salina larvae", "log10(LC50)": 1.58}
{"Compound": "CC1=C[C@H]([C@H]2O[C@@H]3OC(C)(C)O[C@@H]3[C@H]2OCc2ccccc2)OC1=O", "Assay System": "brine shrimp A. salina larvae", "log10(LC50)": 2.00}

====

# Run Description: Method F: immersion bioassay of brine shrimp larvae in brine
# Type: in vivo
# Particulars: Artemia salina (brine shrimp) larvae, in vivo, brine shrimp larvae immersed in brine, 24 hour mortalities

{"Compound": "O=[N+]([O-])NC1=NCCN1Cc1ccc(Cl)nc1 [Imidacloprid, imidacloprid, reference compound]", "LC50 at 24 h": "0.0312 µg/mL"}
